- tested_on: T1, biotinylated NANPx6 (Plasmodium falciparum CSP repeat, …)
- T1 construct: also called NANPx6 peptide; NANPx6 target antigen
- procedure_text: BLI; Octet RED96; biotinylated FL-CSP or biotinylated NANPx6 on streptavidin biosensors, Fab in solution, kinetics buffer; global fit to 1:1 Langmuir model
- run_conditions: both partners purified
property_label: Kd (pM)

{"binder": "Fab 317 (Fab, V domains shown) VH: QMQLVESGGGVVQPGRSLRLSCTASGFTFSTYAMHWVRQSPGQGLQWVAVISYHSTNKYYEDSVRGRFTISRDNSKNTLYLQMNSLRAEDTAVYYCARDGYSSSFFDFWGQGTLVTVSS VL: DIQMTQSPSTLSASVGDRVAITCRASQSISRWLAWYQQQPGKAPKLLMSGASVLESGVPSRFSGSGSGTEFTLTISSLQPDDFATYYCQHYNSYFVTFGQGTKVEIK", "reported_measurement": 3}
